IC50 values for the compounds below.
test: Inhibition of 6-His tagged-G4SG4 fused ZIKV NS2B (49 to 95 residues) R95A mutant-NS3 (1 to 170 residue) R29G mutant expressed in Escherichia coli BL21 (DE3) using Bz-Nle-K-RR-AMC substrate preincubated for 10 mins followed by substrate addition and measured after 30 mins by fluorescence assay; set-up: species or system Zika virus
Non-standard residues stand in square brackets, D forms with d. Residues, ends and D or L forms follow the SMILES beside them. *: point of attachment. Phe(4-CH2NH2) = NCc1ccc(C[C@H](N)C(=O)O)cc1; PhAc = O=C(Cc1ccccc1)*; NHCH2CH2OH = OCCN*

| compound | IC50 |
| --- | --- |
| N=C(N)NCCC[C@H](NC(=O)[C@H](CCCCN)NC(=O)[C@H](CCCCN)NC(=O)Cc1ccccc1)C(=O)NCCO (PhAc-Lys-Lys-Arg-NHCH2CH2OH) | 10.8 µM |
| N=C(N)NCCC[C@H](NC(=O)c1cccs1)C(=O)N[C@@H](CCCCN)C(=O)N[C@@H](C(=O)NCc1ccccc1)c1ccc(OCc2ccc(C(F)(F)F)cc2)cc1 | 0.92 µM |
| CN(Cc1ccccc1)C(=O)[C@H](CCCNC(=N)N)NC(=O)[C@H](CCCCN)NC(=O)[C@H](CCCCN)NC(=O)Cc1ccccc1 | 70 µM |
| CN(Cc1ccccc1)C(=O)[C@@H](NC(=O)[C@H](CCCCN)NC(=O)[C@H](CCCCN)NC(=O)Cc1ccccc1)c1ccc(OCc2ccc(C(F)(F)F)cc2)cc1 | 4.7 µM |
| NCCCC[C@H](NC(=O)Cc1ccccc1)C(=O)N[C@@H](CCCCN)C(=O)N[C@H](C(=O)NCc1cccc(OCc2ccc(C(F)(F)F)cc2)c1)c1ccccc1 | 0.24 µM |
| CCOc1ccc([C@H](NC(=O)[C@H](CCCCN)NC(=O)[C@H](CCCNC(=N)N)NC(=O)c2cccs2)C(N)=O)cc1 | 17.9 µM |
| NCCCC[C@H](NC(=O)Cc1ccccc1)C(=O)N[C@@H](CCCCN)C(=O)N[C@H](C(=O)NCc1cccnc1)c1ccc(OCc2ccc(C(F)(F)F)cc2)cc1 | 0.28 µM |
| NCCCC[C@H](NC(=O)c1cccs1)C(=O)N[C@@H](CCCCN)C(=O)N[C@H](C(=O)NCc1ccc(OCc2ccc(C(F)(F)F)cc2)cc1)c1ccccc1 | 0.2 µM |
| NCCCC[C@H](NC(=O)Cc1ccccc1)C(=O)N[C@@H](CCCCN)C(=O)N[C@H](C(=O)NCc1ccc(Cl)cc1)c1ccc(OCc2ccc(C(F)(F)F)cc2)cc1 | 0.16 µM |
| NCCCC[C@H](NC(=O)Cc1ccncc1)C(=O)N[C@@H](CCCCN)C(=O)N[C@H](C(=O)NCc1ccccc1)c1ccc(OCc2ccc(C(F)(F)F)cc2)cc1 | 0.069 µM |
| N=C(N)NCCC[C@H](NC(=O)c1cccs1)C(=O)N[C@@H](CCCCN)C(=O)N[C@@H](C(N)=O)c1ccc(OCc2ccc(C(F)(F)F)cc2)cc1 | 1.6 µM |
| N=C(N)NCCC[C@H](NC(=O)Cc1ccccc1)C(=O)N[C@@H](CCCCN)C(=O)N[C@H](C(N)=O)c1ccc(OCc2ccc(C(F)(F)F)cc2)cc1 | 31.8 µM |
| NCCCC[C@H](NC(=O)Cc1ccccc1)C(=O)N[C@@H](CCCCN)C(=O)N[C@H](C(=O)Nc1ccccc1)c1ccc(OCc2ccc(C(F)(F)F)cc2)cc1 | 3.4 µM |
| N=C(N)NCCC[C@H](NC(=O)[C@H](CCCCN)NC(=O)[C@H](CCCCN)NC(=O)Cc1ccccc1)C(N)=O (PhAc-Lys-Lys-Arg-NH2) | 3 µM |
| NCCCC[C@H](NC(=O)Cc1ccccc1)C(=O)N[C@@H](CCCCN)C(=O)N[C@H](C(N)=O)c1ccccc1 | 7 µM |
| CN(Cc1ccccc1)C(=O)N[C@@H](CCCCN)C(=O)N[C@@H](CCCCN)C(=O)N[C@@H](CCCNC(=N)N)C(N)=O | 7.4 µM |
| NCCCC[C@H](NC(=O)Cc1ccccc1)C(=O)N[C@@H](CCCCN)C(=O)N[C@H](C(=O)NCC1CCCCC1)c1ccc(OCc2ccc(C(F)(F)F)cc2)cc1 | 0.08 µM |
| N=C(N)NCCC[C@H](NC(=O)c1cccs1)C(=O)N[C@@H](CCCCN)C(=O)N[C@H](C(N)=O)c1ccc(O)cc1 | 10.2 µM |
| NCCCC[C@H](NC(=O)Cc1ccccc1)C(=O)N[C@@H](CCCCN)C(=O)N[C@H](C(=O)NC1Cc2ccccc2C1)c1ccc(OCc2ccc(C(F)(F)F)cc2)cc1 | 2 µM |
| NCCCC[C@H](NC(=O)Cc1ccccc1)C(=O)N[C@@H](CCCCN)C(=O)N[C@H](C(=O)NCC1CCNCC1)c1ccc(OCc2ccc(C(F)(F)F)cc2)cc1 | 0.35 µM |
| N=C(N)NCCC[C@H](NC(=O)c1cccs1)C(=O)N[C@@H](CCCCN)C(=O)NC(C(N)=O)c1ccc(-c2ccc(C(F)(F)F)cc2)cc1 (mixture of isomers) | 6.1 µM |
| CC(=O)N[C@@H](CCCCN)C(=O)N[C@@H](CCCCN)C(=O)N[C@H](C(=O)NCc1ccc(OCc2ccc(C(F)(F)F)cc2)cc1)c1ccccc1 | 0.041 µM |
| N=C(N)NCCC[C@H](NC(=O)[C@H](CCCCN)NC(=O)[C@H](Cc1ccc(CN)cc1)NC(=O)Cc1ccccc1)C(N)=O (PhAc-[Phe(4-CH2NH2)]-Lys-Arg-NH2) | 8.57 µM |
| N=C(N)NCCC[C@H](NC(=O)[C@H](CCCCN)NC(=O)[C@H](CCCCN)NC(=O)Cc1cccnc1)C(N)=O | 4.49 µM |
| N=C(N)NCCC[C@H](NC(=O)[C@H](CCCCN)NC(=O)[C@H](CCCCN)NC(=O)Cc1ccncc1)C(N)=O | 5.2 µM |
